- Test name: self-splicing fitness, log relative to wild type (ln ratio); higher = more splicing; Tetrahymena group I intron in knt gene, E. coli kanamycin selection, DiMSum; sequences stand for … in CUCUCU…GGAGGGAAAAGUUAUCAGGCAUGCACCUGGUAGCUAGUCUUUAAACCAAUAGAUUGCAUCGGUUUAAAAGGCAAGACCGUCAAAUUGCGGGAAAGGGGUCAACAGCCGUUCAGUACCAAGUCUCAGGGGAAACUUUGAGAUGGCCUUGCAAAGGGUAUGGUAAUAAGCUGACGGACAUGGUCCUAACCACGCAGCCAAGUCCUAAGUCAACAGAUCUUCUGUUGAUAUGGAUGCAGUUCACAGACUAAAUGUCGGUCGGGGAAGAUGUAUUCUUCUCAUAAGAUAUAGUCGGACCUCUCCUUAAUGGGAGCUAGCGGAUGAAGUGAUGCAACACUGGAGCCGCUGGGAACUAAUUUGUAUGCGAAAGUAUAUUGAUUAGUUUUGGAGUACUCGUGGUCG;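 also: selection with 25 µg/mL kanamycin versus none on LB agar overnight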
- Condition notes: 37 °C
# self-splicing fitness (ln) listing for each entry below
Respond using a number only.

Before answering, review these 5 worked examples.
| Residues | self-splicing fitness (ln) |
| --- | --- |
| AGACAGCAAUAUUACGACUA | -0.383 |
| UGCCAGCAAUAUUACGAAGC | -1.91 |
| GCAAAGCAAUAUUACGCUUU | -3.27 |
| CGUUAGCAAUAUUACGCAGU | -2.29 |
| AAUCAGCAAUAUUACGAGUU | 0.000416 |

input: Quick check: self-splicing fitness (ln) of GCGCAGCAAUAUUACGGGCC ?
output: -3.25

input: For AUAGAGCAAUAUUACGUAGA , what is its reported self-splicing fitness (ln)?
output: -2.52

input: Report self-splicing fitness (ln) for GCUCAGCAAUAUUACGUAUC please.
output: 0.011

input: Form field: reported self-splicing fitness (ln) of ACCGAGCAAUAUUACGGGGC
output: -2.47

input: Entry UGGAAGCAAUAUUACGGCAC : reported self-splicing fitness (ln) = ?
output: -1.36

input: // returns reported self-splicing fitness (ln) for input UUCAAGCAAUAUUACGUUCG
output: -1.44

input: Find the recorded self-splicing fitness (ln) belonging to CCGUAGCAAUAUUACGUGAA and report it.
output: -2.34

input: What value of measured self-splicing fitness (ln) is listed for AGGAAGCAAUAUUACGGGUG ?
output: -1.98

input: Entry under review: UCCAAGCAAUAUUACGCACA . Reported self-splicing fitness (ln)?
output: -0.309

input: Would you kindly share the measured self-splicing fitness (ln) for CGAUAGCAAUAUUACGAGCA ?
output: -1.86
